Molecular target: Na^+,K^+ -ATPase (Homo sapiens)
Construct: Na^+,K^+ -ATPase receptor purified according to Jorghensen; from tissue
Assay: displacement of the specific 3H-ouabain binding from the purified Na+,K+-ATPase receptor
Settings: 3H-ouabain displacement, purified Na+,K+-ATPase; read-out: Binding ^3 H-Ouab. Displacement log. IC50 (converted)
Text: To test the affinity for the receptor site of the Na^+,K^+ -ATPase and the agonist or inhibitory activity on the enzyme, the following tests were used: a) displacement of the specific 3H-ouabain binding from the Na^+,K^+ -ATPase receptor purified according to Jorghensen (Jorghensen P., BBA, 1974, 356, 36) and Erdmann (Erdmann E. et al., Arzneim. […]
# key: entry, value: IC50
assayEndpoint: IC50 (nM)

# structureString, studyTarget, unitTag, testResult
data = [
    ("C[C@]12CC[C@H](SCCCN3CCNCC3)C[C@H]1CC[C@@H]1[C@@H]2CC[C@]2(C)[C@@H](C3=CC(=O)OC3)CC[C@@H]12", "Na^+,K^+ -ATPase (Homo sapiens)", "nM", 794),
    ("CN(C)CCCS[C@H]1CC[C@@]2(C)[C@H](CC[C@@H]3[C@@H]2CC[C@]2(C)[C@@H](C4=CC(=O)OC4)CC[C@@H]32)C1", "Na^+,K^+ -ATPase (Homo sapiens)", "nM", 1000),
    ("C[C@]12CC[C@H]3[C@@H](CCC4=C[C@@H](SCCCN)CC[C@@]43C)[C@@H]1CC[C@@H]2C1=CC(=O)OC1", "Na^+,K^+ -ATPase (Homo sapiens)", "nM", 1260),
]
